# ASSAY: qHTS of pediatric cancer cell lines to identify multiple opportunities for drug repurposing: Confirmatory screen for Rh41 cells (AID 1347123);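 note: 48 h compound exposure; nearly all actives have a fitted effect of over 60% in size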; note: potency is the fitted concentration of half-maximal effect
# TEST SETTINGS: Rh41 rhabdomyosarcoma cells, viability/cytotoxicity qHTS; series mostly up to 45.9 µM
Results filed as inconclusive are left out. The source made the active and inactive calls. Calls come from the whole dose curve; as a rule, active = well fitted cell-killing curve with a large enough effect; inconclusive = small, poorly fitted or top-dose-only effect; inactive = no such curve, though single readings can be large or run the other way.
ASSAY ENDPOINT: Potency

COMPOUND: CN(C)CC[C@H](CSc1ccccc1)Nc1ccc(S(=O)(=O)NC(=O)c2ccc(N3CCN(Cc4ccccc4-c4ccc(Cl)cc4)CC3)cc2)cc1[N+](=O)[O-]
ASSAY ENDPOINT: Potency
RESULT: 4.65 µM (active)
//
COMPOUND: CON(C)C(=O)N1N=C(c2cc(F)ccc2F)S[C@]1(CCCN)c1ccccc1
ASSAY ENDPOINT: Potency
RESULT: 0.0185 µM (active)
//
COMPOUND: CCNC(=O)c1noc(-c2cc(C(C)C)c(O)cc2O)c1-c1ccc(CN2CCOCC2)cc1
ASSAY ENDPOINT: Potency
RESULT: 0.0465 µM (active)
//
COMPOUND: C[C@@]1(c2cc(-c3cncnc3)c(F)cc2F)CCSC(N)=N1
ASSAY ENDPOINT: Potency
RESULT: 7.37 µM (active)
//
COMPOUND: CN1N=C(N)c2cn([C@@H]3O[C@H](COP(=O)(O)O)[C@@H](O)[C@@H]3O)c3ncnc1c23
ASSAY ENDPOINT: Potency
RESULT: 1.17 µM (active)
//
COMPOUND: COC(=O)Nc1ccc(-c2nc(N3CCOCC3)c3cnn(C4CCN(C(=O)OC)CC4)c3n2)cc1
ASSAY ENDPOINT: Potency
RESULT: 2.61 µM (active)
//
COMPOUND: Nc1ncnc2c1ncn2[C@@H]1O[C@H](CO)[C@@H](O)[C@@H]1O
ASSAY ENDPOINT: Potency
RESULT: 14.7 µM (active)
//
COMPOUND: CC1=C(CC(=O)O)c2cc(F)ccc2C1=Cc1ccc(S(C)=O)cc1 (centres undefined)
ASSAY ENDPOINT: Potency
RESULT: inactive
//
COMPOUND: C[C@H](c1ccc(F)cc1CCCC(=O)O)N(c1cc(F)ccc1F)S(=O)(=O)c1ccc(Cl)cc1
ASSAY ENDPOINT: Potency
RESULT: inactive

* * *

# ASSAY: Quantitative High-Throughput drug screen in 47 multiple myeloma cell lines against the NCATS MIPE library collection: AMO1_DSMZ cell viability assay (AID 1918927; note: nearly all actives have a fitted effect of over 30% in size; note: potency is the fitted concentration of half-maximal effect)
# TEST SETTINGS: AMO1 myeloma cells viability, CellTiter-Glo ATP luminescence, 48 h; series mostly up to 45.8 µM
Inconclusive results are not listed. Active and inactive are the calls of the source. Calls come from the whole dose curve; as a rule, active = well fitted cell-killing curve with a large enough effect; inconclusive = small, poorly fitted or top-dose-only effect, or effect the other way; inactive = no such curve, though single readings can be large or run the other way.

COMPOUND: CN(C)c1nc(Cc2ccc(NC(=O)c3ccc(C(F)(F)F)cc3)cc2)nc(N(C)C)c1CC(=O)O
Potency: inactive
--
COMPOUND: CCN1CCC(n2cc(CNc3cc(Cl)c4ncc(C#N)c(Nc5ccc(F)c(Cl)c5)c4c3)nn2)CC1
Potency: 6.62 µM (active)
--
COMPOUND: Cc1ccc(S(=O)(=O)OCC(=O)Nc2ccc(C(=O)O)c(O)c2)cc1
Potency: inactive
--
COMPOUND: CCN1CCN(c2ccc(Nc3cc(N(C)C(=O)Nc4c(Cl)c(OC)cc(OC)c4Cl)ncn3)cc2)CC1
Potency: inactive
--
COMPOUND: CN1[C@H]2CC[C@H]1CC(OC(=O)c1c[nH]c3ccccc13)C2 (some centres not stated)
Potency: inactive
--
COMPOUND: CNc1nc(-c2ccc3c(N)n[nH]c3c2)cc(N2C[C@@H](C(=O)NC3CCCCC3)CC[C@@H]2C)n1
Potency: 20.9 µM (active)
--
COMPOUND: CCN(CCO)CCCOc1ccc2c(Nc3cc(CC(=O)Nc4cccc(F)c4)[nH]n3)ncnc2c1
Potency: 0.187 µM (active)
--
COMPOUND: O=C(O)C1=CC(O)C(O)[C@H](O)C1 (some centres not stated)
Potency: inactive
--
COMPOUND: CC1=C(CC(=O)O)c2cc(F)ccc2C1=Cc1ccc(S(C)=O)cc1 (configuration not stated)
Potency: 4.18 µM (active)
--
COMPOUND: CCNC(=O)CCCC=CC[C@@H]1[C@H](C=CC(O)CCc2ccccc2)[C@@H](O)C[C@@H]1O (some centres not stated)
Potency: inactive
--
COMPOUND: Oc1ccc(C=Cc2cc(O)cc(O)c2)cc1
Potency: inactive
--
COMPOUND: O=c1[nH]nc(OCCCc2ccc(Cl)cc2)c(NCc2cccnc2)c1Br
Potency: 7.43 µM (active)
--
COMPOUND: CC[C@H](C)C(=O)O[C@H]1C[C@H](O)C=C2C=C[C@H](C)[C@H](CC[C@@H](O)C[C@@H](O)CC(=O)O)[C@H]21
Potency: inactive
--
COMPOUND: C[C@@]1(C(=O)Nc2ccc(F)nc2)CCCN1c1nc(Nc2cc(C3CC3)[nH]n2)c2cccn2n1
Potency: 0.0935 µM (active)
--
COMPOUND: Cc1ccccc1C(=O)c1ccc(Nc2ccc(Br)cc2N)cc1Cl
Potency: 0.833 µM (active)
--
COMPOUND: CN1N=C(N)c2cn([C@@H]3O[C@H](COP(=O)(O)O)[C@@H](O)[C@@H]3O)c3ncnc1c23
Potency: 0.0935 µM (active)
--
COMPOUND: CCC(=C(c1ccc(O)cc1)c1ccc(OCCNC)cc1)c1ccccc1
Potency: 20.9 µM (active)
--
COMPOUND: CN1CC(=O)NC1=NC(=O)Nc1cccc(Cl)c1
Potency: inactive
--
COMPOUND: N#CC(c1ccnc(NCCc2cccnc2)n1)c1nc2ccccc2s1 (configuration not stated)
Potency: 6.62 µM (active)
--
COMPOUND: COc1ccc2ccc(=O)oc2c1CC=C(C)C
Potency: 13.2 µM (active)
--
COMPOUND: C#C[C@]1(O)CC[C@H]2[C@H]3CCc4cc(OC)ccc4[C@H]3CC[C@@]21C
Potency: 26.4 µM (active)
--
COMPOUND: CCCCCCCCCCCCCCCC(=O)O[C@H]1[C@@H](O)[C@@H](O)[C@@H]([C@H](NC(=O)[C@@H]2C[C@@H](CCC)CN2C)[C@H](C)Cl)O[C@@H]1SC
Potency: inactive
